Measured values drawn from ChEMBL document CHEMBL1121984 for this set.

Species: Felis catus
test.method.notes: Inhibition of positive chronotropic effect of the cardioaccelerator was determined
Assay type: functional
condition.summary: read-out: ID50 (the source's name)
readout.label: ED50

Examples with their reported ED50 follow.
> print(dat)
                                   compound  readout.label  recorded.value
1              NCCc1ccc(O)c(O)c1 [DOPAMINE]           ED50   0.105 µmol/kg
2  CCNC1Cc2ccc(O)c(O)c2C1 (centres undefined)           ED50     > 1 µmol/kg
3           Br.CCCN(CCC)C1Cc2cc(O)c(O)cc2C1           ED50     > 3 µmol/kg

Lookup: Query ED50 for CN1CCc2cccc3c2[C@H]1Cc1ccc(O)c(O)c1-3 [APOMORPHINE]
Found: 0.022 µmol/kg
